Data origin: paper PMC9592910

Assay: Pharmacokinetics/tissue distribution of GQD constituents in the colons of mice after oral GQD
Type: in vivo, Kunming mice
Conditions: both, Kunming, mouse, in vivo; colon, mice, oral GQD extract 6.1 g/kg
value-type: MRT (h)
Give bare numbers, in h.

Task: Look at this compound and give its reported MRT. "O=c1c(-c2ccc(O)cc2)coc2cc(O[C@@H]3O[C@H](CO)[C@@H](O)[C@H](O)[C@H]3O)ccc12"
Result: 9.9

###

Test: Pharmacokinetics/tissue distribution of GQD constituents in the livers of mice after oral GQD
Assay type: in vivo, Kunming mice
Details: liver, mice, oral GQD extract […]
value-type: T1/2 (h)
Answers are plain numbers, in h.

Check out these entries, answers already filled in.
{"smiles-representation": "COc1cc2c(cc1OC)-c1cc3ccc(OC)c(OC)c3c[n+]1CC2", "T1/2 [h]": 4.6}
{"smiles-representation": "O=c1cc(-c2ccccc2)oc2cc(O)c(O)c(O)c12", "T1/2 [h]": 2.3}
{"smiles-representation": "O=c1c(-c2ccc(O)cc2)coc2c([C@@H]3O[C@H](CO)[C@@H](O)[C@H](O)[C@H]3O)c(O)ccc12", "T1/2 [h]": 4.0}
{"smiles-representation": "COc1c(O)cc(O)c2c(=O)cc(-c3ccccc3)oc12", "T1/2 [h]": 2.6}

Now for another entry.
Task: Look at this molecule and give its reported T1/2. "O=C(O)[C@H]1O[C@@H](Oc2cc3oc(-c4ccccc4)cc(=O)c3c(O)c2O)[C@H](O)[C@@H](O)[C@@H]1O"
Result: 1.7

###

Would you kindly list half-life for each of these compounds?
Experiment: Pharmacokinetics/tissue distribution of GQD constituents in the colons of mice after oral GQD
Assay type: in vivo, Kunming mice
Settings: both, Kunming, mouse, colon (homogenate), po, […], colon, mice, oral GQD extract […]; read-out: T1/2 (converted)
Give bare numbers, in h.

{"compound": "COc1ccc2cc3[n+](cc2c1OC)CCc1cc2c(cc1-3)OCO2 [Berberine, berberine]", "half-life [h]": 3.5}

Now for another entry.
Task: Look at this compound and give its reported half-life. COc1ccc2cc3[n+](cc2c1O)CCc1cc2c(cc1-3)OCO2 [Berberrubine, berberrubine]
Result: 14.3

###

Experiment: Pharmacokinetics of GQD constituents in the portal vein of mice after oral GQD
Format: in vivo, Kunming mice
Conditions: both, Kunming, mouse; portal vein plasma, mice, oral GQD extract 6.1 g/kg
value-type: MRT (h)
Numbers only, in h.

Check out these entries, answers already filled in.
{"smiles-representation": "COc1ccc2c(c1O)-c1c(O)c(OC)cc3c1[C@H](C2)[N+](C)(C)CC3", "u": "h", "MRT": 2.6}
{"smiles-representation": "COc1ccc2cc3[n+](cc2c1OC)CCc1cc2c(cc1-3)OCO2", "u": "h", "MRT": 5.5}
{"smiles-representation": "O=c1c(-c2ccc(O)cc2)coc2c([C@@H]3O[C@H](CO)[C@@H](O)[C@H](O)[C@H]3O)c(O)ccc12", "u": "h", "MRT": 3.2}

Now for another entry.
Task: Look at this compound and give its reported MRT. "O=c1cc(-c2ccccc2)oc2cc(O)c(O)c(O)c12"
Result: 3.8

###

Assay: Pharmacokinetics/tissue distribution of GQD constituents in the livers of mice after oral GQD
Format: in vivo, Kunming mice
Settings: both, Kunming, mouse, in vivo; liver, mice, oral GQD extract 6.1 g/kg
value-type: MRT (h)
Numbers only, in h.

Task: Look at this compound and give its reported MRT. "O=c1c(-c2ccc(O)cc2)coc2cc(O[C@@H]3O[C@H](CO)[C@@H](O)[C@H](O)[C@H]3O)ccc12"
Result: 3.6
